SYSTEM NAME: CYP2D6 (Homo sapiens (Human), UniProt P10635)
Sequence (P10635 whole entry): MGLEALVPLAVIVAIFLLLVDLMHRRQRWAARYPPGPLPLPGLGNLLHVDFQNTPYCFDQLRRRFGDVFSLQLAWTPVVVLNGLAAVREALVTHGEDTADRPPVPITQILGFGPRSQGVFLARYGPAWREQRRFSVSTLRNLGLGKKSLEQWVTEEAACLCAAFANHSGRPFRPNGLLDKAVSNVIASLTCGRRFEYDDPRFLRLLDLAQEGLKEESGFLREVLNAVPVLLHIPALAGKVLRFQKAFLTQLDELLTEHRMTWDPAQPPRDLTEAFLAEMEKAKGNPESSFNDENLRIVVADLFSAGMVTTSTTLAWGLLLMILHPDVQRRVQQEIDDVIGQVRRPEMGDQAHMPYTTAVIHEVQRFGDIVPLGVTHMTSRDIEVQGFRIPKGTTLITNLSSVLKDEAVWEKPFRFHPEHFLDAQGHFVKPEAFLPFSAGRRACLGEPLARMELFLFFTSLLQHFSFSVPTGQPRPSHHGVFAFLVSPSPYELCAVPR
MEASURE: IC50 (µM)

COMPOUND: C[C@@H]1Cc2c([nH]c3cc(F)ccc23)[C@@H](c2c(F)cc(N[C@H]3CCN(CCCF)C3)cc2F)N1CC(F)(F)F [Compound 32]
UNITS TEXT: µM
IC50: 23.4
--
COMPOUND: C#Cc1ccc2c3c([nH]c2c1)[C@@H](c1c(F)cc(N[C@H]2CCN(CCCF)C2)cc1F)N(CC(F)(F)F)[C@H](C)C3 [Compound 43]
UNITS TEXT: µM
IC50: 21.5

###

PROTOCOL SUMMARY: Pharmacokinetic test in rats
Type: in vivo
CONDITION NOTES: male, SD, rat, iv, i.v. (2.5 mg/kg), plasma
MEASURE: clearance (mL/min/kg)

CHEMICAL STRING: C#Cc1ccc2c3c([nH]c2c1)[C@@H](c1c(F)cc(N[C@H]2CCN(CCCF)C2)cc1F)N(CC(F)(F)F)[C@H](C)C3
UNITS TEXT: mL/min/kg
TEST VALUE: 20.8

(1) C[C@@H]1Cc2c([nH]c3cc(F)ccc23)[C@@H](c2c(F)cc(N[C@H]3CCN(CCCF)C3)cc2F)N1CC(F)(F)F
(2) C[C@@H]1Cc2c([nH]c3ccc(F)cc23)[C@@H](c2c(F)cc(N[C@H]3CCN(CCCF)C3)cc2F)N1CC(F)(F)F
For the two items 1 and 2 , which reports the higher clearance value? Identify your pick by its label.
1
(1: 39.2 mL/min/kg, 2: 16.9 mL/min/kg)

###

PROTOCOL SUMMARY: Pharmacokinetic test in rats
Type: in vivo
CONDITION NOTES: male, SD, rat, plasma, po, i.g. (10 mg/kg)
MEASURE: bioavailability (%)

CHEMICAL STRING: C#Cc1ccc2c3c([nH]c2c1)[C@@H](c1c(F)cc(N[C@H]2CCN(CCCF)C2)cc1F)N(CC(F)(F)F)[C@H](C)C3
bioavailability (%): 51
--
CHEMICAL STRING: C[C@@H]1Cc2c([nH]c3ccc(F)cc23)[C@@H](c2c(F)cc(N[C@H]3CCN(CCCF)C3)cc2F)N1CC(F)(F)F
bioavailability (%): 55
--
CHEMICAL STRING: C[C@@H]1Cc2c([nH]c3cc(F)ccc23)[C@@H](c2c(F)cc(N[C@H]3CCN(CCCF)C3)cc2F)N1CC(F)(F)F
bioavailability (%): 57.6

###

pIC50: −log10 of the molar value.
Assay system CYP1A2 (Homo sapiens (Human), UniProt P05177); read-out recorded as pIC50.

Some solved cases for reference:
CHEMICAL STRING: C#Cc1ccc2c3c([nH]c2c1)[C@@H](c1c(F)cc(N[C@H]2CCN(CCCF)C2)cc1F)N(CC(F)(F)F)[C@H](C)C3
SYSTEM NAME: CYP1A2 (Homo sapiens (Human), UniProt P05177)
Sequence (P05177 whole entry): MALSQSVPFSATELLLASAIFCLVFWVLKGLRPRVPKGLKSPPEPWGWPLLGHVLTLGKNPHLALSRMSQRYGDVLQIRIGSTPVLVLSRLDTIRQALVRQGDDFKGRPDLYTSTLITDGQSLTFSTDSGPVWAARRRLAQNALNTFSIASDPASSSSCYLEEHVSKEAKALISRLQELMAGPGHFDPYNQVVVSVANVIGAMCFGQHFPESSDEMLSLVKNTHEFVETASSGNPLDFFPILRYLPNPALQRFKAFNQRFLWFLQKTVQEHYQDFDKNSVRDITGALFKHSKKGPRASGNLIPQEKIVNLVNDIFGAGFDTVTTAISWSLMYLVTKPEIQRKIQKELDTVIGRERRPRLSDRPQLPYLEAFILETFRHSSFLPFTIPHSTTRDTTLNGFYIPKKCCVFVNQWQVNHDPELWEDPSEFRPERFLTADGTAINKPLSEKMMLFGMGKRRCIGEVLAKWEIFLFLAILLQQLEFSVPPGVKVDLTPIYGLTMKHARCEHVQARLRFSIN
pIC50: 4.38
--
CHEMICAL STRING: C[C@@H]1Cc2c([nH]c3cc(F)ccc23)[C@@H](c2c(F)cc(N[C@H]3CCN(CCCF)C3)cc2F)N1CC(F)(F)F
SYSTEM NAME: CYP1A2 (Homo sapiens (Human), UniProt P05177)
pIC50: < 4.00

Consider the additional compound presented here.
Provide CYP1A2 (Homo sapiens (Human), UniProt P05177) pIC50 reading for C[C@@H]1Cc2c([nH]c3ccc(F)cc23)[C@@H](c2c(F)cc(N[C@H]3CCN(CCCF)C3)cc2F)N1CC(F)(F)F .
< 4.00

###

SYSTEM NAME: UniProtKB P03372
Sequence (P03372 whole entry): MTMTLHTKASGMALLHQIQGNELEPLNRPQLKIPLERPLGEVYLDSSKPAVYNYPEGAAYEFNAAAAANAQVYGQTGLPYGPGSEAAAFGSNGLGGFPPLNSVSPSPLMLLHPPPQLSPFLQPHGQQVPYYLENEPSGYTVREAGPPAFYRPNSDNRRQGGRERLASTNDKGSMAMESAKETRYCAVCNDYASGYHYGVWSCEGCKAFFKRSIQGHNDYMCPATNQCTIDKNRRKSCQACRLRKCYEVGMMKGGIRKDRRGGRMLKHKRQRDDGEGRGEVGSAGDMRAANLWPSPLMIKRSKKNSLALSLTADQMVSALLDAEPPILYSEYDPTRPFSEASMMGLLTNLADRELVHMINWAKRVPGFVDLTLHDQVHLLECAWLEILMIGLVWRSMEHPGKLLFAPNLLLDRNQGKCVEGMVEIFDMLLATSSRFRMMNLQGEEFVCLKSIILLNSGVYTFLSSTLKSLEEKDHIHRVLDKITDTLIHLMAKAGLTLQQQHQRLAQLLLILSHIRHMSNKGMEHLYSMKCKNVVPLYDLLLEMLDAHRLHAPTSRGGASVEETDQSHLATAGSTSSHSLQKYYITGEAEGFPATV
PROTOCOL SUMMARY: Degradation effect of compounds on ERα in MCF-7 and CAMA-1 cells (automated western blot, 24 h)
Assay type: cell-based
CONDITION NOTES: ERα degradation in MCF-7 cells, 24 hours
MEASURE: DC50 (nM)

(a) C[C@@H]1Cc2c([nH]c3cc(F)ccc23)[C@@H](c2c(F)cc(N[C@H]3CCN(CCCF)C3)cc2F)N1CC(F)(F)F [Compound 32]
(b) C[C@@H]1Cc2c([nH]c3cc(F)c(F)cc23)[C@@H](c2c(F)cc(N[C@H]3CCN(CCCF)C3)cc2F)N1CC(F)(F)CO [Compound 35]
(c) Cc1ccc2[nH]c3c(c2c1)C[C@@H](C)N(CC(F)(F)CO)[C@@H]3c1c(F)cc(N[C@H]2CCN(CCCF)C2)cc1F [Compound 49]
Reorder the items by DC50, least to greatest. Returns: the labels arranged in the requested order.
b, c, a

FYI, the data here is from patent US20240208932A1.
